target_or_test_system: Glutamate NMDA receptor; GRIN1/GRIN2B (Homo sapiens, UniProt Q05586+Q13224)
Sequence (Q13224 whole entry, other chains not shown): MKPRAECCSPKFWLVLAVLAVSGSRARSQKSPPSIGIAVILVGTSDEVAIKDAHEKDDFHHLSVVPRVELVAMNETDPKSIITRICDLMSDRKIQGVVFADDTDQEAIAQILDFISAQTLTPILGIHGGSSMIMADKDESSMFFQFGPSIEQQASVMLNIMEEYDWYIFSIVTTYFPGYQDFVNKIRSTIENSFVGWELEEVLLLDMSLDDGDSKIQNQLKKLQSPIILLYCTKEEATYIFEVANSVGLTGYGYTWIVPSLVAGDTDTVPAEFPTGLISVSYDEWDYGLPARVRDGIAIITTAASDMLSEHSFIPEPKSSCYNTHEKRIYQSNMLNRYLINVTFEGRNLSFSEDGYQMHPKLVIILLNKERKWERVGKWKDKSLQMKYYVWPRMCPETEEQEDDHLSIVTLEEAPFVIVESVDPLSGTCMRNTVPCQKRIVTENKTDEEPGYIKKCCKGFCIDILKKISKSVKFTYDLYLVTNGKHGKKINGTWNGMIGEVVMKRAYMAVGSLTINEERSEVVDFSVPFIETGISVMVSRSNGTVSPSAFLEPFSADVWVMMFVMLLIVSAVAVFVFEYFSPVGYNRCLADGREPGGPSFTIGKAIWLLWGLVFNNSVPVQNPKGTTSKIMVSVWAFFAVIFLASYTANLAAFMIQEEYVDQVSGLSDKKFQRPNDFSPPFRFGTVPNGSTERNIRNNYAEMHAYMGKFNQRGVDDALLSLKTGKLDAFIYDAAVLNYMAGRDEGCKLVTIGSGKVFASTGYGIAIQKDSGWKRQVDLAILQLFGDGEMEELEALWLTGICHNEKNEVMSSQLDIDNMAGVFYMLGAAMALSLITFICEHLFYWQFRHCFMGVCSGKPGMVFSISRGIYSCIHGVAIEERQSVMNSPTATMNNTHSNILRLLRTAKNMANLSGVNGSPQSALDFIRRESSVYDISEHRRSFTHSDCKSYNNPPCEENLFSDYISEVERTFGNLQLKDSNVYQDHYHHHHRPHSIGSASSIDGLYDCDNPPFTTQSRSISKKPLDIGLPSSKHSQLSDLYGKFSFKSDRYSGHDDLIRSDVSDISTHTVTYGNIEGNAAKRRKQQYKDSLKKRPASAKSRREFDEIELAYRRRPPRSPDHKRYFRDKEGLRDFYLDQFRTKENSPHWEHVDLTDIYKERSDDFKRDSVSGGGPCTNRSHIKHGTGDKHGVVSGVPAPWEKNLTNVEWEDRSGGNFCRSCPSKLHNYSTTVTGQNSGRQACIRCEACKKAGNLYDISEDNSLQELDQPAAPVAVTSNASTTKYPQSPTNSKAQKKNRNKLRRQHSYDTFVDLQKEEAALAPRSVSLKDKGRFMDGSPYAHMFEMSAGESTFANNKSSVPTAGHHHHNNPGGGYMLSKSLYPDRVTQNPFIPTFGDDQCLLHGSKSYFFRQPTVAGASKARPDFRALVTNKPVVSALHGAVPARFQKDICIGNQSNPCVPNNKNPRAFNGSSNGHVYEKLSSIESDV
assay_details: Inhibition of GluN1/GluN2B NMDA receptor (unknown origin) expressed in HEK293 cells
pIC50: −log10 of the molar value.
We begin with a simple list: items and their reported pIC50.
observation_type: pIC50

{"columns": ["structure_as_smiles", "target_or_test_system", "observation_type", "reported_value"],
 "data": [
  ["C[C@@]12CCC[C@H]1[C@@H]1CC[C@@H]3C[C@H](NC(=O)O)CC[C@]3(C)[C@H]1CC2", "Glutamate NMDA receptor; GRIN1/GRIN2B (Homo sapiens, UniProt Q05586+Q13224)", "pIC50", 4.66],
  ["C[C@@]12CCC[C@H]1[C@@H]1CC[C@@H]3C[C@H](NC(=O)CC(=O)O)CC[C@]3(C)[C@H]1CC2", "Glutamate NMDA receptor; GRIN1/GRIN2B (Homo sapiens, UniProt Q05586+Q13224)", "pIC50", 4.81],
  ["CC(=O)[C@H]1CC[C@H]2[C@@H]3CC[C@@H]4C[C@H](OC(=O)[C@@H](N)CCC(=O)O)CC[C@]4(C)[C@H]3CC[C@]12C", "Glutamate NMDA receptor; GRIN1/GRIN2B (Homo sapiens, UniProt Q05586+Q13224)", "pIC50", 4.29],
  ["C[C@@]12CCC[C@H]1[C@@H]1CC[C@@H]3C[C@H](NC(=O)[C@@H](N)CC(=O)O)CC[C@]3(C)[C@H]1CC2", "Glutamate NMDA receptor; GRIN1/GRIN2B (Homo sapiens, UniProt Q05586+Q13224)", "pIC50", 6.00],
  ["C[C@@]12CCC[C@H]1[C@@H]1CC[C@@H]3C[C@H](NC(=O)[C@@H](N)CCC(=O)O)CC[C@]3(C)[C@H]1CC2", "Glutamate NMDA receptor; GRIN1/GRIN2B (Homo sapiens, UniProt Q05586+Q13224)", "pIC50", 5.85]
]}
